# Test name: Half life in human liver microsomes at 50 uM preincubated for 3 mins prior to NADPH addition measured after 60 mins by HPLC analysis
# Format: ADME, Microsome
Reported endpoint: half-life at 50 µM
Please don't drop the unit; write it after the number.

**Query** Report measured half-life at 50 µM; entry is O=C(/C=C(\O)c1cc(Cc2ccc(F)cc2F)cn(Cc2ccccc2F)c1=O)C(=O)N[C@H]1CCC[C@@H]1O
**Result** 2 h

* * *

# System tested: CYP2D6 (Homo sapiens)
# Sequence (P10635 whole entry): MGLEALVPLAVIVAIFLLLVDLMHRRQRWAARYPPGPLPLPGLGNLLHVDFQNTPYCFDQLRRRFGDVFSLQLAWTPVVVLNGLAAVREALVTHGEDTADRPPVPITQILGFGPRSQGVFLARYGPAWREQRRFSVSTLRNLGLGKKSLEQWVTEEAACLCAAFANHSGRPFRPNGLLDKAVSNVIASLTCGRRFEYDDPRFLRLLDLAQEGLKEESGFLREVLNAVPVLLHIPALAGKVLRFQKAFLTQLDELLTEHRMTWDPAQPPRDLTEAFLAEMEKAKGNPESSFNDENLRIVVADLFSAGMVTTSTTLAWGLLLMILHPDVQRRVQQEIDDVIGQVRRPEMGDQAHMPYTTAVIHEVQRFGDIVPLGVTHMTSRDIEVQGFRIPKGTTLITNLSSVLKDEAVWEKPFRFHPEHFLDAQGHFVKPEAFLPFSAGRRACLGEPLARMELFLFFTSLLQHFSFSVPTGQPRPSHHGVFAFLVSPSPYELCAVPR
# Test name: Activity at CYP2D6 in human liver microsomes using dextromethorphan as substrate at 12.5 uM preincubated for 3 mins prior to NADPH addition by HPLC-UV analysis relative to control
# Type: ADME, Microsome
# Run conditions: probe dextromethorphan, read-out: Activity
Reported endpoint: activity at 12.5 µM (%)
Record the value in %, omitting the unit from your answer.

**Query** Report measured activity at 12.5 µM; entry is O=C(/C=C(\O)c1cc(Cc2ccc(F)cc2F)cn(Cc2ccccc2F)c1=O)C(=O)N[C@H]1CCC[C@@H]1O
**Result** 86

* * *

# System tested: CYP3A4 (Homo sapiens)
# Sequence (P08684 whole entry): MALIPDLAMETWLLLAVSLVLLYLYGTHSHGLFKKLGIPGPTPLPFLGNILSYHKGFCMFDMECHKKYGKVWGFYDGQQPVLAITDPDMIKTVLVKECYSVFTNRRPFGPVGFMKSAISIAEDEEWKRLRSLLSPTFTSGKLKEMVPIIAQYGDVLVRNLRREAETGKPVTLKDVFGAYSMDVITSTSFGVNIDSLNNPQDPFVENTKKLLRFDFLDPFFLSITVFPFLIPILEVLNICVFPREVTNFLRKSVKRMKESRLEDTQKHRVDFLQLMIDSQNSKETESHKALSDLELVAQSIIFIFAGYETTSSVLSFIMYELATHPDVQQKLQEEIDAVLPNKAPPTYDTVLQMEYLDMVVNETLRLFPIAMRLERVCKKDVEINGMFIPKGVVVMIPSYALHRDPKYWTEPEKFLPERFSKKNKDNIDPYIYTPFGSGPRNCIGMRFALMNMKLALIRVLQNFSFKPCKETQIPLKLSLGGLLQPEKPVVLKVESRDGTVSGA
# Test name: Activity at CYP3A4 in human liver microsomes using triazolam as substrate at 25 uM preincubated for 3 mins prior to NADPH addition by HPLC-UV analysis relative to control
# Assay type: ADME, Microsome
# Run conditions: probe triazolam, read-out: Activity
Reported endpoint: activity at 25 µM (%)
Record the value in %, omitting the unit from your answer.

**Query** Report measured activity at 25 µM; entry is O=C(/C=C(\O)c1cc(Cc2ccc(F)cc2F)cn(Cc2ccccc2F)c1=O)C(=O)N[C@H]1CCC[C@@H]1O
**Result** 98

* * *

# System tested: UniProt:P10635
# Test name: Activity at CYP2D6 in human liver microsomes using dextromethorphan as substrate at 50 uM preincubated for 3 mins prior to NADPH addition by HPLC-UV analysis relative to control
# Type: ADME, Microsome
# Run conditions: probe dextromethorphan, read-out: Activity
Reported endpoint: activity at 50 µM (%)
Record the value in %, omitting the unit from your answer.

**Query** Report measured activity at 50 µM; entry is O=C(/C=C(\O)c1cc(Cc2ccc(F)cc2F)cn(Cc2ccccc2F)c1=O)C(=O)N[C@H]1CCC[C@@H]1O
**Result** 87

* * *

# System tested: Human immunodeficiency virus type 1 integrase (Human immunodeficiency virus 1)
# Sequence (Q7ZJM1 whole entry): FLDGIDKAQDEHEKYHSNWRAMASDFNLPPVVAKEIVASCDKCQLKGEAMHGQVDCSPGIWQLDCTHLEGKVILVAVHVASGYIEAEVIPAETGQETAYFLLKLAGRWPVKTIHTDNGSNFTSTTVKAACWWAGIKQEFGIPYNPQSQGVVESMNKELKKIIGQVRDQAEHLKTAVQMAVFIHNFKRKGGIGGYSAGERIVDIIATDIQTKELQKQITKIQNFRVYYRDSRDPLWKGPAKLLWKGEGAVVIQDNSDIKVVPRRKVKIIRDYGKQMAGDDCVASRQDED
Reported endpoint: pIC50
Value format note: pIC50 is -log10 of concentration (mol/L); just state the number.

**Query** Given O=C(/C=C(\O)c1cc(Cc2ccc(F)cc2F)cn(Cc2ccccc2F)c1=O)C(=O)N[C@@H]1CCC[C@H]1O (racemic) , report its pIC50 on Human immunodeficiency virus type 1 integrase (Human immunodeficiency virus 1).
**Result** 7.32

* * *

# System tested: CYP3A4 (Homo sapiens)
# Test name: Activity at CYP3A4 in human liver microsomes using testosterone as substrate at 25 uM preincubated for 3 mins prior to NADPH addition by HPLC-UV analysis relative to control
# Type: ADME, Microsome
# Run conditions: probe testosterone, read-out: Activity
Reported endpoint: activity at 25 µM (%)
Record the value in %, omitting the unit from your answer.

**Query** Report measured activity at 25 µM; entry is O=C(/C=C(\O)c1cc(Cc2ccc(F)cc2F)cn(Cc2ccccc2F)c1=O)C(=O)N[C@H]1CCC[C@@H]1O
**Result** 97

* * *

# System tested: CYP3A4 (Homo sapiens)
# Test name: Activity at CYP3A4 in human liver microsomes using triazolam as substrate at 50 uM preincubated for 3 mins prior to NADPH addition by HPLC-UV analysis relative to control
# Format: ADME, Microsome
# Run conditions: probe triazolam, read-out: Activity
Reported endpoint: activity at 50 µM (%)
Record the value in %, omitting the unit from your answer.

**Query** Report measured activity at 50 µM; entry is O=C(/C=C(\O)c1cc(Cc2ccc(F)cc2F)cn(Cc2ccccc2F)c1=O)C(=O)N[C@H]1CCC[C@@H]1O
**Result** 100
